experiment: Plasma stability of prodrugs (bioconversion to parent drug); type: in vitro ADME; conditions: Table 15, 1 h
Reported % Prodrug at time (h) is given for each of the following molecules.

- compound: "CCCCCc1cc(OC(=O)OCCCCN)c2c(c1)OC(C)(C)[C@@H]1CCC(C)=C[C@@H]21"
  % Prodrug at time (h) (%): 100
- compound: "CCCCCc1cc(OC(=O)CN(C)C)c2c(c1)OC(C)(C)[C@@H]1CCC(C)=C[C@@H]21"
  % Prodrug at time (h) (%): 94
- compound: "CCCCCc1cc(OC(=O)C(C)(CO)CO)c2c(c1)OC(C)(C)[C@@H]1CCC(C)=C[C@@H]21"
  % Prodrug at time (h) (%): 100
- compound: "CCCCCc1cc(OC(=O)COCCOCCOCCOC)c2c(c1)OC(C)(C)[C@@H]1CCC(C)=C[C@@H]21"
  % Prodrug at time (h) (%): 35
- compound: "CCCCCc1cc(OC(=O)OC[C@H](O)CO)c2c(c1)OC(C)(C)[C@@H]1CCC(C)=C[C@@H]21"
  % Prodrug at time (h) (%): 3

###

assay: In vitro human skin permeation, flow-through diffusion cells; conditions: Table 17; 90:8:2 PG:H2O:IPM donor solution; analyte: THC or intact prodrug as applied
measured endpoint: Flux (nmol/cm^2/h)

- compound: "CCCCCc1cc(OC(=O)OC[C@H](O)CO)c2c(c1)OC(C)(C)[C@@H]1CCC(C)=C[C@@H]21"
  measured endpoint: "Flux"
  reported result: 5.7
- compound: "CCCCCc1cc(OC(=O)CN(C)C)c2c(c1)OC(C)(C)[C@@H]1CCC(C)=C[C@@H]21"
  measured endpoint: "Flux"
  reported result: 0.5
- compound: "CCCCCc1cc(OC(=O)COCCOCCOCCOC)c2c(c1)OC(C)(C)[C@@H]1CCC(C)=C[C@@H]21"
  measured endpoint: "Flux"
  reported result: 0.4
- compound: "CCCCCc1cc(O)c2c(c1)OC(C)(C)[C@@H]1CCC(C)=C[C@@H]21 [Δ^9-tetrahydrocannabinol, reference compound]"
  measured endpoint: "Flux"
  reported result: 1.0

###

experiment: Plasma stability of prodrugs (bioconversion to parent drug); type: in vitro ADME; settings: Table 11, 22 h

- compound: "CCCCCc1cc(OC(=O)OCCOCCOCCOCCOC)c2c(c1)OC(C)(C)[C@@H]1CCC(C)=C[C@@H]21"
  % Prodrug at time (h): "64%"
- compound: "CCCCCc1cc(OC(=O)C(=O)OCCOCCOCCOCCOC)c2c(c1)OC(C)(C)[C@@H]1CCC(C)=C[C@@H]21"
  % Prodrug at time (h): "0%"
- compound: "CCCCCc1cc(OC(=O)CN(C)C=O)c2c(c1)OC(C)(C)[C@@H]1CCC(C)=C[C@@H]21"
  % Prodrug at time (h): "10%"
- compound: "CCCCCc1cc(OC(=O)C2CCCN2)c2c(c1)OC(C)(C)[C@@H]1CCC(C)=C[C@@H]21 (stereo partly shown) [ALL00125, Δ^9-Tetrahydrocannabinol prolyl ester]"
  % Prodrug at time (h): "0%"
- compound: "CCCCCc1cc(OC(=O)CCC(=O)O)c2c(c1)OC(C)(C)[C@@H]1CCC(C)=C[C@@H]21 [ALL00123, Δ^9-Tetrahydrocannabinol hemisuccinate]"
  % Prodrug at time (h): "0%"
- compound: "CCCCCc1cc(OC(=O)CN(C)C)c2c(c1)OC(C)(C)[C@@H]1CCC(C)=C[C@@H]21"
  % Prodrug at time (h): "86%"
- compound: "CCCCCc1cc(OC(=O)CNC=O)c2c(c1)OC(C)(C)[C@@H]1CCC(C)=C[C@@H]21"
  % Prodrug at time (h): "0%"

Where do the numbers come from? From patent US9957246B2.
